test system: Candida albicans; test: Antifungal activity against Candida albicans Y0109 assessed as inhibition of fungal growth incubated for 24 hrs by broth microdilution method; assay type: functional
MIC80 listing for selected compounds.

COMPOUND: Oc1ccc([C@@]2(Cn3ccnc3)OC[C@H](Cn3cc(-c4ccccn4)nn3)O2)c(F)c1 (mixture of isomers)
MIC80 (mg/L): 0.063

COMPOUND: CCN(CC)CCc1cn(C[C@H]2CO[C@](Cn3ccnc3)(c3ccc(O)cc3F)O2)nn1 (mixture of isomers)
MIC80 (mg/L): 0.016

COMPOUND: CCC(C)n1ncn(-c2ccc(N3CCN(c4ccc(OCC5COC(Cn6cncn6)(c6ccc(Cl)cc6Cl)O5)cc4)CC3)cc2)c1=O (stereo not drawn) [ITRACONAZOLE]
MIC80 (mg/L): 0.063
